Source of measurements: patent US9611303B2

- System: Proteinase K
- assay details: Protease resistance of LATM2 (SDS-PAGE)
- run conditions: 5 μM Proteinase K, 30° C., 15 min, presence or absence of biotin
- Description: Throughout the specification, “having protease resistance” refers to that a protein is not enzymatically decomposed or not substantially decomposed by protease treatment. […] The term “not enzymatically decomposed” refers to that bands of a tetramer, dimer, and/or monomer of the protein can be clearly detected by SDS-PAGE after enzyme treatment, as in wild-type TM2. […] Accordingly, bands of the tetramer and/or the dimer or monomer generated by dissociation of the tetramer are detected by SDS-PAGE. […]
assay readout: decomposition by Proteinase K

molecule	assay readout	observed value
WT-TM2: wild-type tamavidin 2, protein comprising the amino acid sequence SEQ ID NO: 2, from Pleurotus cornucopiae (protein, listed as Pleurotus cornucopiae) MSDVQSSLTGTWYNELNSKMELTANKDGTLTGKYLSKVGDVYVPYPLSGRYNLQPPAGQGVALGWAVSWENSKIHSATTWSGQFFSESSPVILTQWLLSSSTARGDVWESTLVGNDSFTKTAPTEQQIAHAQLHCRAPRLK	decomposition by Proteinase K	hardly decomposed
TM2 S36A-T78A-D116A: TM2 with 36th serine, 78th threonine and 116th aspartic acid replaced with alanine; SEQ ID NO: 8 (protein, Synthetic TM2 S36A-T78A-D116A) MSDVQSSLTGTWYNELNSKMELTANKDGTLTGKYLAKVGDVYVPYPLSGRYNLQPPAGQGVALGWAVSWENSKIHSAATWSGQFFSESSPVILTQWLLSSSTARGDVWESTLVGNASFTKTAPTEQQIAHAQLHCRAPRLK	decomposition by Proteinase K	hardly decomposed
